Entries and their Ratio OD(Variant)/OD(WT)
- assay.system: HRgpA-6H (Porphyromonas gingivalis) (UniProt P28784)
- experiment: ELISA, FASEBA screening, coated HRgpA-6H; variant OD over parental WT Fab OD
// print number alone

binder: KB001 parental mouse Fab FASEBA variant VH Y106K (Fab, V domains shown) VH: EVQLKQSGPGLVAPSQSLSITCTVSGFSLSIYSVHWVRQPPGKGLEWLGMIWGGGSSDYNSALKSRLSISKDNSKSQVFLKMNSLQTDDTAMYYCARNGNFYAMDKWGQGTSVTVSS VL: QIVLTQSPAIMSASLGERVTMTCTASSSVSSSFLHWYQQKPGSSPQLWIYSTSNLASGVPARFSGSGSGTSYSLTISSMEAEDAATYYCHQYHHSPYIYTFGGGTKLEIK
attribute.measured: Ratio OD(Variant)/OD(WT)
endpoint.result: 0.997

binder: KB001 parental mouse Fab FASEBA variant VH S65L (Fab, V domains shown) VH: EVQLKQSGPGLVAPSQSLSITCTVSGFSLSIYSVHWVRQPPGKGLEWLGMIWGGGSSDYNSALKLRLSISKDNSKSQVFLKMNSLQTDDTAMYYCARNGNFYAMDYWGQGTSVTVSS VL: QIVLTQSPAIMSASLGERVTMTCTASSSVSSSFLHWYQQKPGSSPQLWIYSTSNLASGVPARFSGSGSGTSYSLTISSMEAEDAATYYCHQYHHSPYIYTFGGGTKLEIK
attribute.measured: Ratio OD(Variant)/OD(WT)
endpoint.result: 0.88

binder: KB001 parental mouse Fab FASEBA variant VH Y106H (Fab, V domains shown) VH: EVQLKQSGPGLVAPSQSLSITCTVSGFSLSIYSVHWVRQPPGKGLEWLGMIWGGGSSDYNSALKSRLSISKDNSKSQVFLKMNSLQTDDTAMYYCARNGNFYAMDHWGQGTSVTVSS VL: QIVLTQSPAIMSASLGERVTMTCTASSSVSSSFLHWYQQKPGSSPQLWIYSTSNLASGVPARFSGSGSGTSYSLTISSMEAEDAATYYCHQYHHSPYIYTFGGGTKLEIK
attribute.measured: Ratio OD(Variant)/OD(WT)
endpoint.result: 0.939

binder: KB001 parental mouse Fab FASEBA variant VH S65G (Fab, V domains shown) VH: EVQLKQSGPGLVAPSQSLSITCTVSGFSLSIYSVHWVRQPPGKGLEWLGMIWGGGSSDYNSALKGRLSISKDNSKSQVFLKMNSLQTDDTAMYYCARNGNFYAMDYWGQGTSVTVSS VL: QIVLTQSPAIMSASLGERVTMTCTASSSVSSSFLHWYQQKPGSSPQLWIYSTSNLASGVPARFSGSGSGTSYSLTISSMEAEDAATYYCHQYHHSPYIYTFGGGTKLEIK
attribute.measured: Ratio OD(Variant)/OD(WT)
endpoint.result: 0.998

The record that follows has no Ratio OD(Variant)/OD(WT) shown yet.
# return recorded Ratio OD(Variant)/OD(WT) for entry KB001 parental mouse Fab FASEBA variant VH N100E (Fab, V domains shown) VH: EVQLKQSGPGLVAPSQSLSITCTVSGFSLSIYSVHWVRQPPGKGLEWLGMIWGGGSSDYNSALKSRLSISKDNSKSQVFLKMNSLQTDDTAMYYCARNGEFYAMDYWGQGTSVTVSS VL: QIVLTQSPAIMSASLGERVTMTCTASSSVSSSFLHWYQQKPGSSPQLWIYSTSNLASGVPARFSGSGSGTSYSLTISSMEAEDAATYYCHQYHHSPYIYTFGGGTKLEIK
0.972

FYI, the data here is from patent US20240400654A1.
